- Test Protocol: ATG_ERE_CIS: Attagene CIS-FACTORIAL HepG2 Assay for Estrogen Response Element (ERE) (AID 2282940)
- Applied Conditions: HepG2 ERE cis-reporter, Attagene RNA transcript; actives raise or lower the signal
Activity calls are given as the source filed them. Rule for the calls: active = hit-call score of the fitted dose curve at least 0.9, where 1 is the maximum; inactive = score below 0.9.
Select the matching outcome among Y for active, N for inactive

q: Each compound tested received a call. Report the one for Nc1ccc(Nc2ccccc2)cc1 .
a: Y

q: Hi team, can someone confirm the assay call for CC(C)=CCCC(C)CCO (configuration not stated) ?
a: Y

q: Given CCCCCCCCO , state the outcome it received in this test.
a: N

q: Please state the recorded outcome for this compound: O=c1n(CC2CO2)c(=O)n(CC2CO2)c(=O)n1CC1CO1 (configuration not stated)
a: N

q: Which outcome was entered for the compound COC(=O)c1ccccc1O in this test?
a: N

q: Per the assay record, what outcome was assigned to C=CC(=C)CCC=C(C)C ?
a: N

q: Name the outcome recorded for COc1ccc(-n2nc(C(F)F)cc2-c2ccc(S(C)=O)cc2)cc1 (configuration not stated) in the assay.
a: N

q: Please share the test call associated with CC/C(=C\C(=N/O)C(N)=O)C(C)[N+](=O)[O-] (configuration not stated) .
a: N

q: Call for entry CCOC(=O)COc1ccc2c(c1)CC(NCC(O)c1cccc(Cl)c1)CC2 (configuration not stated) :
a: N

q: Which outcome did this test record for the compound CC[C@H]1CC[C@H](NCc2cc3c(cc2OC)[C@H]2C[C@H]2C(=O)N3C)[C@H](c2ccccc2)N1 ?
a: N

q: Record lookup: outcome of this test for COc1cccc(-c2ccc(/C=C\CN3CCCCCC3)cc2Cl)c1 ?
a: N

q: Hey, what did the test say about O=C(NS(=O)(=O)/C=C/c1ccccc1)c1ccc(F)cc1Cl ?
a: N

q: Please indicate how the test categorized Cn1cnc([N+](=O)[O-])c1Sc1ncnc2nc[nH]c12 .
a: Y

q: State the result this test recorded for CCC(C)(C)C(=O)O[C@H]1C[C@@H](C)C=C2C=C[C@H](C)[C@H](CC[C@@H]3C[C@@H](O)CC(=O)O3)[C@H]21 .
a: Y

q: Identify the outcome logged in this assay for the compound shown: CCn1nc(Cc2ccccc2)cc1C1CCN(C[C@H]2C[C@H](N(C)[C@@H](C(=O)O)C(C)C)C[C@@H]2c2cccc(F)c2)CC1
a: Y

q: Kindly provide the recorded test outcome for the following compound: CC(C)CCO
a: N

q: How was O=P(OC(CCl)CCl)(OC(CCl)CCl)OC(CCl)CCl classified in this test?
a: N

----------
- Read-out: Interleukin-8 (IL8), CXCL8 (gene 3576)
- Test Protocol: BSK_hDFCGF_IL8: BioMAP Diversity Plus: hDFCGF Assay for Interleukin-8 (IL8) Biomarker Activity (AID 2283058)
- Applied Conditions: primary human foreskin fibroblasts; actives raise or lower the signal
- Protocol: BSK_hDFCGF is a cell-based, multiplexed-readout assay that uses foreskin fibroblast, a human skin primary cell, with measurements taken at 24 hours after chemical dosing in a 96-well plate.BSK_hDFCGF_IL8 is an assay component measured in the BSK_hDFCGF assay. It measures IL-8 antibody related to regulation of gene expression using ELISA technology.Data from the assay component BSK_hDFCGF_IL8 was analyzed into 1 assay endpoint. […]
The source made the active and inactive calls. The calls were made as follows: active = hit-call score of the fitted dose curve at least 0.9, where 1 is the maximum; inactive = score below 0.9.
Please reply with one of these outcomes: active, inactive

q: Hey, what did the test say about CCCCCCCCO ?
a: inactive

q: Can you look up the reported call for CC(C)CC(C)(O)C#CC(C)(O)CC(C)C (configuration not stated) for me?
a: inactive

q: Called result for CC(C)CCCCCCCOC(=O)CCCCC(=O)OCCCCCCCC(C)C
a: inactive

q: Hi team, can someone confirm the assay call for CC(C)=CCC/C(C)=C\CO ?
a: inactive

q: Called result for CCOCCO
a: inactive

q: Tell me the recorded outcome of this test for CC(C)=CCCC(C)CCO (configuration not stated) .
a: inactive

q: Could you please tell me the result logged for Cc1ccc(S(=O)(=O)O)cc1C in this assay?
a: inactive

q: Recorded call for CCCCC(CC)COC(=O)c1ccc(C(=O)OCC(CC)CCCC)cc1 (configuration not stated) ?
a: inactive

q: Fill in: this test's call for CC(C)(O)c1coc(S(=O)(=O)NC(=O)Nc2c3c(cc4c2CCC4)CCC3)c1 is ___
a: inactive

q: Give the logged outcome of this assay for the following compound: Cc1[nH]cnc1C[C@H]1CCc2c(C)c3ccccc3n2C1=O
a: inactive

q: Dear colleague, could you share the recorded outcome for CC[C@H](C)C(=O)O[C@H]1C[C@@H](C)C=C2C=C[C@H](C)[C@H](CC[C@@H]3C[C@@H](O)CC(=O)O3)[C@H]21 when you have a moment?
a: active

q: For Cn1c(=O)cc(Oc2ccc(F)cc2F)c2cnc(NCC(C)(C)O)nc21 , which call appears in the assay record?
a: inactive

q: So what was the verdict on CCN(C(=O)c1cc(C)cc(OC[C@H](C)Nc2ccncc2)c1)C(C)C in this test?
a: inactive

q: Write down the call the test reported for this compound. Item: O=C1CCC(N2C(=O)c3ccccc3C2=O)C(=O)N1 (configuration not stated)
a: inactive

q: Test call for this compound, please: CNCc1ccc(NC(=O)c2c[nH]c3c2C(=O)CCC3)cc1
a: inactive

q: Given CC(C)=CCC/C(C)=C/CO , state the outcome it received in this test.
a: inactive

q: Lab log entry: CCOCCOCCOCCO — outcome as called in the assay?
a: inactive

q: Hi, do you know how COCCOCCOCCOC came out in this test?
a: inactive

q: // outcome(item) with item = CCOC(=O)c1ccc(C2CCC(NC[C@H](O)COc3ccc(O)c(NS(C)(=O)=O)c3)CC2)cc1 (some centres not stated)
a: active

q: State the result this test recorded for C1=CCCC=CCCC=CCC1 .
a: inactive

q: Given O=C(OC[C@H]1O[C@@H](OC(=O)c2cc(O)c(O)c(OC(=O)c3cc(O)c(O)c(O)c3)c2)[C@H](OC(=O)c2cc(O)c(O)c(OC(=O)c3cc(O)c(O)c(O)c3)c2)[C@@H](OC(=O)c2cc(O)c(O)c(OC(=O)c3cc(O)c(O)c(O)c3)c2)[C@@H]1OC(=O)c1cc(O)c(O)c(OC(=O)c2cc(O)c(O)c(O)c2)c1)c1cc(O)c(O)c(OC(=O)c2cc(O)c(O)c(O)c2)c1 , state the outcome it received in this test.
a: inactive

q: Hey, what did the test say about CCc1cc(SCc2sc(-c3ccc(C(F)(F)F)cc3)nc2CN2CCN(c3ccc(OC)cc3)CC2)ccc1OCC(=O)O ?
a: active

----------
- Target Under Test: Estrogen-related receptor gamma (Homo sapiens)
- Test Protocol: ATG_ERRg_TRANS: Attagene TRANS-FACTORIAL HepG2 Assay for human Estrogen-Related Receptor gamma (ERRg) (AID 2282977);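 note: hits increase reporter signal over DMSO so potencies reflect activators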
- Applied Conditions: HepG2 Attagene TRANS reporter, ERRg transactivation
Records with an inconclusive call do not appear. Calls of active or inactive are those of the source. Rule for the calls: active = hit-call score of the fitted dose curve at least 0.9, where 1 is the maximum; inconclusive = response in the unintended direction; inactive = score below 0.9.
Readout Type: outcome

Examples with their reported outcome follow.
q: Provide outcome value for the following compound: On1ccccc1=S
a: inactive

q: Indicate its recorded outcome; the compound in question is CCOC(=O)COc1ccc2c(c1)CC(NCC(O)c1cccc(Cl)c1)CC2 (configuration not stated)
a: inactive

q: Read the entry COC(=O)c1c(Cl)c(Cl)c(C(=O)OC)c(Cl)c1Cl and write its reported outcome.
a: inactive

q: Consider the compound Clc1nc(Cl)c(Cl)c(Cl)c1Cl and give its recorded outcome.
a: inactive

q: // Input: Cn1c(=O)c2c(ncn2C)n(C)c1=O . Output its outcome only.
a: inactive

Others:
q: Return the recorded outcome value; entry: O=C(O)c1cccc(N(Cc2cccnc2)c2ccc(OC(F)F)c(OC(F)F)c2)c1
a: inactive

q: # return recorded outcome for entry O=C(NS(=O)(=O)/C=C/c1ccccc1)c1ccc(F)cc1Cl
a: inactive

----------
- Read-out: E-selectin (Homo sapiens)
- Test Protocol: BSK_LPS_Eselectin: BioMAP Diversity Plus: LPS Assay for Eselectin Biomarker Activity (AID 2283077)
- Applied Conditions: primary human HUVEC with PBMC; actives raise or lower the signal
- Protocol: BSK_LPS is a cell-based, multiplexed-readout assay that uses umbilical vein endothelium and peripheral blood mononuclear cells, a human vascular primary cell co-culture, with measurements taken at 24 hours after chemical dosing in a 96-well plate.BSK_LPS_Eselectin is an assay component measured in the BSK_LPS assay. It measures E-selectin antibody related to regulation of gene expression using ELISA technology.Data from the assay component BSK_LPS_Eselectin was analyzed into 1 assay endpoint. […]
Calls of active or inactive are those of the source. How the source made its calls: active means hit-call score of the fitted dose curve at least 0.9, where 1 is the maximum; inactive means score below 0.9.
Result category, one only: active, inactive

q: Hello, I am checking results. What call was entered for COC(=O)c1ccccc1O ?
a: inactive

q: Called result for CCOCCOCCOCCO
a: inactive

q: For this compound, state the assay outcome: CC(C)=CCCC(C)=CC=O
a: inactive

q: What is the recorded call for this compound in the test? CCn1nc(Cc2ccccc2)cc1C1CCN(C[C@H]2C[C@H](N(C)[C@@H](C(=O)O)C(C)C)C[C@@H]2c2cccc(F)c2)CC1
a: inactive

q: What is the recorded call for this compound in the test? CCOc1cccc(-n2cc(C(=O)N3CCN(c4cc(C(=O)O)c5ccccc5c4)CC3)nc2-c2ccc(C)cc2)c1
a: active

q: Name the outcome recorded for CCOC(=O)COc1ccc2c(c1)CC(NCC(O)c1cccc(Cl)c1)CC2 (configuration not stated) in the assay.
a: inactive

q: Please indicate how the test categorized CC(C)CCO .
a: inactive

q: // param item: O=C1CCC(N2C(=O)c3ccccc3C2=O)C(=O)N1 (configuration not stated) ; yields the recorded call
a: inactive

q: Hi, sorry to bother you, what did the test record for Nc1nc2ncc(CNc3ccc(C(=O)N[C@@H](CCC(=O)O)C(=O)O)cc3)nc2c(=O)[nH]1 ?
a: inactive

q: What is the recorded call for this compound in the test? On1ccccc1=S
a: active

q: What call does the record list for CC(C)c1cccc(C(C)C)c1N1C(=O)c2ccc(O)cc2C1=O ?
a: active

q: Query: recorded result category for CC(C)CC(C)(O)C#CC(C)(O)CC(C)C (configuration not stated) in this test
a: inactive
